The entries below are paired with their reported inhibition at 1 µM.
STUDY TARGET: recombinant human mPGES-1 (Homo sapiens, UniProt O14684)
Construct: made in house; host or cells: Rosetta E. coli (microsomal/membrane fraction)
Sequence (O14684 whole entry): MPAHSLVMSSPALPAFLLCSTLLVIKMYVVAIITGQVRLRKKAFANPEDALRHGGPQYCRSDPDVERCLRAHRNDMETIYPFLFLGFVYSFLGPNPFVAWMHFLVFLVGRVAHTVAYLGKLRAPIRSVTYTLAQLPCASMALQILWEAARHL
ASSAY DETAILS: mPGES-1 inhibition test (microsomes, PGH2 substrate, HTRF detection of PGE2)
Assay type: biochemical
PARTICULARS: inhibition of mPGES-1 at 1 μM (marked in cell)
Express it in %; write the number only.

- SMILES REPR: "CC(C)Oc1cc2c(cc1C(=O)NC1CCC(C)(C)CC1)nc(Nc1c(Cl)ccc(Cl)c1F)n2C"
  QUANTITATIVE RESULT: 99
- SMILES REPR: "COc1cc2c(cc1C(=O)NC1CCC(C)(C)CC1)nc(Nc1c(Cl)ccc(C)c1F)n2C"
  QUANTITATIVE RESULT: 100
- SMILES REPR: "O=C(Nc1ccc(Br)c(F)c1)c1ccc2[nH]c(Nc3c(Cl)cccc3Cl)nc2c1"
  QUANTITATIVE RESULT: 100

Exam item: Return reported inhibition at 1 µM; argument: Cc1ccc(Cl)c(Nc2nc3cc(C(=O)N[C@H]4CC[C@H](C(F)(F)F)CC4)c(F)cc3[nH]2)c1F
Marked response: 92

Exam item: Return reported inhibition at 1 µM; argument: Cc1ccc(Cl)c(Nc2nc3cc(C(=O)N[C@H]4CC[C@H](C(F)(F)F)CC4)c(F)cc3n2C)c1F
Marked response: 99

Exam item: Return reported inhibition at 1 µM; argument: COc1cc2c(cc1C(=O)NC1CCC(C)(C)CC1)nc(Nc1c(F)c(F)cc(F)c1F)n2C
Marked response: 94

Exam item: Return reported inhibition at 1 µM; argument: COc1cc2[nH]c(Nc3c(Cl)ccc(C)c3F)nc2cc1C(=O)NC1CCC(C)(C)CC1
Marked response: 92

Exam item: Return reported inhibition at 1 µM; argument: COc1cc2c(cc1C(=O)N[C@H]1CC[C@H](C(F)(F)F)CC1)nc(Nc1c(Cl)ccc(Cl)c1F)n2C
Marked response: 100

====

STUDY TARGET: recombinant human mPGES-1 (Homo sapiens, UniProt O14684)
Construct: made in house; host or cells: Rosetta E. coli (microsomal/membrane fraction)
ASSAY DETAILS: mPGES-1 inhibition test (microsomes, PGH2 substrate, HTRF detection of PGE2)
Type: biochemical
PARTICULARS: inhibition of mPGES-1 at 10 μM
The entries below are paired with their reported inhibition at 10 µM.
Reply with a number, then the unit it belongs to.

Reference set, count: 5
- COMPOUND: "Cn1c(Nc2c(Cl)cccc2Cl)nc2cc(C(=O)NCC3CCCOC3)ccc21 (centres unmarked) [Example 251]"
  inhibition at 10 µM: "71%"
- COMPOUND: "CCCC[C@H](C)NC(=O)c1cc2nc(Nc3c(Cl)cccc3Cl)n(C)c2cc1F [Example 450]"
  inhibition at 10 µM: "99%"
- COMPOUND: "Cn1c(Nc2c(Cl)cccc2Cl)nc2cc(C(=O)NCc3ncccc3C3CC3)c(F)cc21 [Example 422]"
  inhibition at 10 µM: "100%"
- COMPOUND: "O=C(NC1COc2ccccc2C1)c1cc2[nH]c(Nc3c(Cl)cccc3Cl)nc2cc1F (centres unmarked) [Example 152]"
  inhibition at 10 µM: "95%"
- COMPOUND: "Cn1c(Nc2c(Cl)cccc2Cl)nc2cc(C(=O)NC3(C)CCCCC3)ccc21 [Example 253]"
  inhibition at 10 µM: "100%"

Exam item: Return reported inhibition at 10 µM; argument: O=C(NC1CCC2(CC1)CC2)c1ccc2[nH]c(Nc3c(F)cccc3Cl)nc2c1 [Example 488]
Marked response: 98%

Exam item: Return reported inhibition at 10 µM; argument: O=C(NCc1ncccc1C(F)(F)F)c1ccc2[nH]c(Nc3c(Cl)cccc3Cl)nc2c1 [Example 220]
Marked response: 96%

Exam item: Return reported inhibition at 10 µM; argument: COCCn1c(Nc2c(Cl)cccc2Cl)nc2cc(C(=O)Nc3cccc(Cl)c3)ccc21 [Example 181]
Marked response: 100%
